// TGI lookup, one value per entry
Tested on: A498 renal
Test: NCI tumour cell line growth inhibition, 48 h
METRIC: TGI

MOLECULE | ENDPOINT_VALUE
CCOC(=O)NC(=O)c1cn(CC(=O)NCC(=O)NCC(=O)NCCCN2CCN(CCCNC(=O)CNC(=O)CNC(=O)Cn3cc(C(=O)NC(=O)OCC)c(=O)[nH]c3=O)CC2)c(=O)[nH]c1=O | > 100 µM
O=C1c2ccccc2C(=O)N1CCCSc1ccccc1 | > 100 µM
CC(C)CS(=O)(=O)/C(=C(\c1ccc(Br)cc1)S(=O)(=O)CC(C)C)c1ccc(Br)cc1 | 31.6 µM
Cn1ccnc1CC(C)(O)c1ccccc1 (stereo unspecified) | > 100 µM
CC(=O)O[C@H]1CC[C@H]2[C@@H]3CCC4C(C)=NNC(=O)C4[C@H]3CC[C@]12C (stereo partly specified) | > 100 µM
CC1(C)C2CCC3=C(CCC4(C)C5C[C@](C)(C(=O)O)CC[C@]5(C)CC[C@]34C)[C@@]2(C)CC[C@@H]1O (stereo partly specified) | 44.7 µM

* * *

Tested on: SF-539 CNS
Assay: NCI tumour cell line growth inhibition, 48 h
// TGI lookup, one value per entry
METRIC: TGI

COMPOUND | METRIC | ENDPOINT_VALUE
COC(=O)Nc1nc2ccc(S(=O)(=O)NC(CC(C)C)C(=O)OC)cc2[nH]1 (stereo not given) | TGI | 38.3 µM
Cc1ccc2nc(CN3CCCC(O)C3)cc(=O)n2c1 (stereo not given) | TGI | > 100 µM
COc1ccccc1N1C(=O)/C(=C/c2ccc(N(CCC#N)CCC#N)cc2C)N=C1c1cc([N+](=O)[O-])ccc1Cl | TGI | > 100 µM
COc1ccc2nc3c([N+](=O)[O-])ccc4c3c(c2c1)N=CN4CCCN(C)C | TGI | 13 µM
Nc1c(C(=O)c2ccc(Cl)cc2)sc(Nc2ccccc2)c1-c1nc2ccccc2s1 | TGI | > 100 µM

* * *

System: MDA-MB-231 breast
Experiment: NCI tumour cell line growth inhibition, 48 h
// GI50 lookup, one value per entry

COMPOUND | TARGET_ENTITY | GI50
CCOC(=O)C(Cc1c[nH]c2ccc(N)cc12)(NC(C)=O)C(=O)OCC | MDA-MB-231 breast | > 1000 µM
ClCc1cccc(Cn2cnc3c(NC45CC6CC(CC(C6)C4)C5)ncnc32)c1 | MDA-MB-231 breast | 15.5 µM
O=C(/C=C/c1ccc(F)cc1)c1ccc(Cl)cc1Cl | MDA-MB-231 breast | > 100 µM
C=C1C(=O)O[C@H]2[C@H]1CC/C(CNC(=O)c1cc3cc(OC)ccc3[nH]1)=C\CC[C@@]1(C)O[C@@H]21 | MDA-MB-231 breast | 1.71 µM
CSc1ccc(C2=NN(C(=O)c3ccc(F)cc3)C(c3ccc(F)cc3)C2)cc1 (stereo not given) | MDA-MB-231 breast | 14 µM
Cc1cc(I)cc(CN(C)CCCN2CCSCC2)c1O | MDA-MB-231 breast | 27.8 µM
O=c1c2cc(Cl)ccc2oc2ccc(OCCCCCN3CCCCC3)cc12 | MDA-MB-231 breast | 3.15 µM
O=C(O[C@H]1CN[C@H](C#Cc2cc3ncnc(Nc4ccc5c(ccn5Cc5cc(F)ccc5F)c4)c3s2)C1)N1CCOCC1 | MDA-MB-231 breast | 1.97 µM
CCN1CCN(C(=O)[C@]23CC[C@@H](C)[C@H](C)[C@@H]2C2=CC[C@@H]4[C@@]5(C)C/C(=C/c6ccncc6)C(=O)C(C)(C)[C@@H]5CC[C@@]4(C)[C@]2(C)CC3)CC1 | MDA-MB-231 breast | 1.55 µM
CC12OC(c3ccccc3)=CC(c3ccc(Cl)cc3)=C1C(c1ccccc1)=CC2=O (stereo not given) | MDA-MB-231 breast | 67.2 µM

* * *

System: IGROV1 ovarian
Experiment: NCI tumour cell line growth inhibition, 48 h
// TGI lookup, one value per entry

COMPOUND | TGI
Cc1ccc2c(c1)C(=O)/C(=N/Nc1ccc(Cl)cc1)CCO2 | > 100 µM
COC(=O)C(Cc1cn(C(C)=O)c2ccccc12)P(=O)(OC)OC (stereo not drawn) | > 100 µM
CC(=O)c1cccc(N2COC(C)(C)c3nc4ccccc4n3C2)c1 | > 100 µM
CN1CCN(CCCN)CC1 | > 100 µM
O=c1ccn(C2OC(CO)C(O)C2F)c(=O)[nH]1 (stereo not drawn) | > 1000 µM
CCOC(=O)C(C(=O)OCC)=C1NC2(c3ccccc3Nc3ccc(C)cc32)C(C#N)S1 (stereo not drawn) | 27.2 µM
CCNC(=O)CCN(C(=O)O)S(=O)(=O)c1ccc(NC(=O)c2ccccc2)cc1 | > 100 µM
COc1cc(Cl)c2c3c(c(C(C)=O)oc13)CCC2 | > 100 µM
CC12CCC3[C@@H](CC3(C)C)C(O)(CCC1=O)C2 (stereo partly drawn) | > 100 µM
Cc1cc([C@H](C#N)c2nc3ccccc3[nH]2)nc(Cl)n1 | > 100 µM
NNC(=O)/C(=C/c1ccc(Cl)c(Cl)c1)NC(=O)c1ccccc1 | > 100 µM
CC(C)=CCCC(C)c1ccc(C)c2c1OCN(CC1CCNCC1)C2 (stereo not drawn) | 32.2 µM
COC(=O)C(C)NP(=O)(N1CC1)N1CC1 (stereo not drawn) | > 100 µM
Cc1nc2sc(C(=O)Nc3cccc(Cl)c3C)c(N)c2cc1C(=O)/C=C/c1ccccc1 | 1.1 µM
Cn1c([N+](=O)[O-])cnc1/C=C1\Oc2ccccc2C1=O | 5.87 µM
COc1cc(S(=O)(=O)Nc2nc(-c3ccc(N4C(=O)C(CC(=O)O)SC4c4ccccc4O)cc3)cs2)ccc1Cl (stereo not drawn) | > 100 µM
CCCCc1c2c(nc3c1CCC/C3=C\c1ccccc1)C(=O)CCC2 | 42.5 µM
O=C(/C=C/c1ccc(F)cc1)c1ccc(Cl)cc1Cl | > 100 µM
C/C1=C/C(C)CC(C)OC(=O)C(C)NC(=O)C(Cc2ccc(O)c(I)c2)N(C)C(=O)CNC(=O)C(C)C1 (stereo not drawn) | 0.0236 µM
CN1CCC2(CC1)SC[C@H]1C(=O)N(c3ccc(Cl)cc3)C(=O)N12 | > 100 µM
COc1cc(/C=C/C(=O)CC(=O)/C=C/c2cc(OC)c(OC)c(OC)c2)cc(OC)c1OC | 8.22 µM
C=C1C(=O)O[C@H]2[C@H]1CC/C(CNC(=O)c1cc3cc(OC)ccc3[nH]1)=C\CC[C@@]1(C)O[C@@H]21 | 5.94 µM
COc1cc(/C=C(\C#N)C(=O)c2ccccc2)ccc1OCc1ccccc1 | > 100 µM
O=C1c2ccccc2C(O)(C(=O)O)C1(O)CC=C(Cl)Cl (stereo not drawn) | > 125 µM
Cc1oc2c(c1C)S(=O)(=O)C(C#N)C(c1ccccc1)N2 (stereo not drawn) | > 100 µM
Cc1ccc2nc(CN3CCCC(O)C3)cc(=O)n2c1 (stereo not drawn) | > 100 µM
OC1(CCc2ccccc2)COC(C(F)(F)F)(C(F)(F)F)C1 (stereo not drawn) | > 100 µM
COc1cc2c[n+](C)c3c4cc5c(cc4ccc3c2cc1OC)OCO5 | 3.9 µM
O=[N+]([O-])c1cccc(/C=N\NS(=O)(=O)c2ccc(Cl)cc2)c1O | > 100 µM
CC[C@@H]1OC2(C)CC(S(=O)(=O)c3ccccc3O)CC1O2 (stereo partly drawn) | > 100 µM
O=C(/C=C/c1ccc([N+](=O)[O-])o1)N1CCN(Cc2ccccc2)CC1 | 32.1 µM
Cc1cc(Cl)ccc1NC(=O)CCCC(=O)C1CCCC1=O (stereo not drawn) | > 100 µM
O=C(c1ccccc1)c1ccc2nc3n(c2c1)C(c1c(F)cccc1F)SC3 (stereo not drawn) | > 100 µM

* * *

System: EKVX NSCLC
Experiment: NCI tumour cell line growth inhibition, 48 h
// TGI lookup, one value per entry

MOLECULE | TGI
CCC(C)C(C(=O)N/N=C1/SCC(=O)N1c1ccccc1)C(=O)N/N=C1/SCC(=O)N1c1ccccc1 (stereo not drawn) | > 100 µM
CN(C)c1ccc(/C=N\NC(=O)c2ccccc2Nc2ccccc2C(=O)N/N=C/c2ccc(N(C)C)cc2)cc1 | > 100 µM
CC[C@](O)(CC(=O)O[C@H]1C(=O)O[C@@H]2C[C@H]3C(C)=CC(=O)[C@@H](O)[C@]3(C)[C@H]3[C@@]4(O)OC[C@]32[C@@H]1[C@@H](C)[C@H]4O)C(C)C | < 0.01 µM
COc1cc2c(cc1OCCCOc1cc3c(cc1OC)C(=O)N1C[C@H](F)C[C@H]1C=N3)N=C[C@@H]1C[C@@H](F)CN1C2=O | 35.5 µM
COc1cc(/C=C/C(=O)CC(=O)/C=C/c2cc(OC)c(OC)c(OC)c2)cc(OC)c1OC | 40.9 µM
Cc1ccc2nc(CN3CCCC(O)C3)cc(=O)n2c1 (stereo not drawn) | > 100 µM
COc1ccc([N+]2=NC(c3ccc([N+](=O)[O-])cc3)=NN(c3ccccc3)C2)cc1 | > 100 µM
CSc1ccc(C2=NN(C(=O)c3ccc(F)cc3)C(c3ccc(F)cc3)C2)cc1 (stereo not drawn) | 37 µM
